- Test System: T1, SARS-CoV-2 Alpha Variant RBD (SARS-CoV-2 Alpha variant)
- T1 construct: domain: RBD; coated on ELISA plates
- Assay Protocol: ELISA, RBD coated
pEC50: −log10 of the molar value.
Returns T if the recorded pEC50 is greater than or equal to 9, and F otherwise.

As a guide, the following entries are already answered.
[
  {
    "Binder": "PP927 MBP-5HVZ-R1i-C8-H6 (VHH, Form: Dimer) VHH: QVQLVESGGGLVQPGGSLRLSCAASGRQFGAWRMHWYRQAPGKQREWVAGITSGTSGNYADSVKGRFTISRDNAKNTVYLQMNSLKPEDTAVYYCAATSHTTYHAEYWGQGTQVTVSS",
    "Class Assignment": "F"
  },
  {
    "Binder": "PP1097 MBP-5HVZ-PAPA-RN-5-H6 (VHH) VHH: QVQLVESGGGLVQPGGSLRLSCAASGSSFRILAMHWYRQAPGKNREWVAVITSNGNTYYADSVKGRFTISRDNAKNTVYLQMNSLKPEDTAVYYCNADTLDLDDGATYNYWGQGTQVTVSS",
    "Class Assignment": "T"
  },
  {
    "Binder": "PP1107 MBP-5HVZ-PAPA-RN-22-H6 (VHH, Form: Dimer) VHH: QVQLVESGGGLVQPGGSLRLSCAASGSISEINLLHWFRQAPGKQREWVATMTSGGSTDYADSVKGRFTISRDNAKNTVYLQMNSLKPEDTAVYYCAADEFTKYGHGRYWGQGTQVTVSS",
    "Class Assignment": "T"
  },
  {
    "Binder": "PP902 MBP-5HVZ-R1e-D4-H6 (VHH, Form: Dimer) VHH: QVQLVESGGGLVQPGGSLRLSCAASGSIREINAMHWVRQAPGKGRELVASIDSGSLDYYADSVKGRFTISRDNAKNTVYLQMNSLKPEDTAVYYCAASRSGDYRYWGQGTQVTVSS",
    "Class Assignment": "F"
  }
]

Query binder follows.
Check this binder for pEC50 at or above 9: PP931 MBP-5HVZ-R5a-F5-H6 (VHH, Form: Dimer) VHH: QVQLVESGGGLVQPGGSLRLSCAASGYHASILAMHWVRQAPGKEREWVASMTWSDMTQYSDSVKGRFTISRDNAKNTVYLQMNSLKPEDTAVYYCAATYVTRDRPWTHWGQGTQVTVSS
F
